- test-method-notes: Formation of 1,5-cz-[Ln(Lig)] from Lig and Ln^III ions (metal dependent click-zip), MOPS/NaOH buffer pH 7.0, analytical HPLC (Charts 1, 2)
- condition: Nd^III; after 1 week at 80° C.; MOPS/NaOH buffer pH 7.0
What conversion to 1,5-cz-[Ln(Lig)], Nd^III was measured for each of the following?
Field: numeric (%). Do not append units.

The compound listed as CC(C)(N)C#Cc1cccc(CN2CCN(CC(=O)O)CCN(Cc3cc(-c4ccccc4)cc(CN=[N+]=[N-])n3)CCN(CC(=O)O)CC2)n1 [TD1054] has a reported conversion to 1,5-cz-[Ln(Lig)], Nd^III of 11

The compound listed as [N-]=[N+]=NCc1cccc(CN2CCN(CC(=O)O)CCN(Cc3cccc(C#CI)n3)CCN(CC(=O)O)CC2)n1 [TD1204] has a reported conversion to 1,5-cz-[Ln(Lig)], Nd^III of 1

The compound listed as CC(C)(C#Cc1cccc(CN2CCN(CC(=O)O)CCN(Cc3cccc(CN=[N+]=[N-])n3)CCN(CC(=O)O)CC2)n1)NC(=O)OC(C)(C)C [TD1105] has a reported conversion to 1,5-cz-[Ln(Lig)], Nd^III of 0

The compound listed as C#Cc1cccc(CN2CCN(CC(=O)O)CCN(Cc3cc(Cl)cc(CN=[N+]=[N-])n3)CCN(CC(=O)O)CC2)n1 [TD764] has a reported conversion to 1,5-cz-[Ln(Lig)], Nd^III of 50

The compound listed as C#Cc1cccc(CN2CCN(CC(=O)O)CCN(Cc3cc(-c4ccc(C(=O)O)cc4)cc(CN=[N+]=[N-])n3)CCN(CC(=O)O)CC2)n1 [TD742] has a reported conversion to 1,5-cz-[Ln(Lig)], Nd^III of 76

The compound listed as C#Cc1cccc(CN2CCN(CC(=O)O)CCN(Cc3cc(C(=O)OC(C)C)cc(CN=[N+]=[N-])n3)CCN(CC(=O)O)CC2)n1 [TD1148] has a reported conversion to 1,5-cz-[Ln(Lig)], Nd^III of 0

The compound listed as C#Cc1cccc(CN2CCN(CCC(=O)O)CCN(Cc3cccc(CN=[N+]=[N-])n3)CCN(CCC(=O)O)CC2)n1 [TD801] has a reported conversion to 1,5-cz-[Ln(Lig)], Nd^III of 0
